- System: MDA-MB-435
- assay: NCI tumour cell line growth inhibition, 48 h
quantity-kind: TGI

Request: What does the record list as TGI for Nc1ccc(N=Nc2ccccc2)cc1 ?
Result: > 100 µM

Request: Follow-up item: O=C(CSC(c1ccccc1)c1ccccc1)N/N=C/c1ccc(Cl)cc1Cl
Result: 79.2 µM

Request: CC1=COC(C)(C=C(C#N)C#N)CC1 (centres undefined) , same question.
Result: > 100 µM

Request: Moving on to the next compound: O=c1c2ncn(COCCCl)c2n(-c2ccccc2)c(=S)n1-c1ccccc1
Result: > 100 µM

Request: Try CCC(C#N)NC(=O)NC(C#N)CC (centres undefined) next.
Result: > 100 µM

Request: CCCCCC(=O)NC(=S)Nc1nn[nH]n1 ?
Result: > 100 µM

Request: Input CC(=O)c1ccc2c3c1[C@@H]1O[C@@H]1c1cccc(c1-3)[C@@H]1O[C@H]21
Result: 25.7 µM

Request: Then what about the compound Cc1ccc(-c2cc(N)n(-c3nc4c(c(=O)n(C)c(=O)n4C)n3C)n2)cc1 ?
Result: > 100 µM

Request: Entry to check: Cc1cc(N/N=C/c2nc(-c3ccc(Br)cc3)oc2C)c2cc(Br)ccc2n1
Result: 5.34 µM

Request: How about this compound: Cc1cn2c(/C=C3\C(=O)N(C)c4ccc(O)cc43)c(C)nc2s1
Result: 3.92 µM

Request: Quick one: O=[N+]([O-])c1ccc2c(c1)C(c1ccccc1Cl)=Nc1cn[nH]c1N2
Result: > 25 µM

Request: Moving on to the next compound: COc1ccc2[nH]c3c4c(ccc3c2c1)C(=O)C=CC4=O
Result: 66.5 µM

Request: Proceed to Nc1cccc(Nc2nc3ccccc3nc2NS(=O)(=O)c2ccccc2)c1
Result: 62.4 µM

Request: Another compound to look at: O=C1NC(N/N=C/C(O)C(O)C(O)CO)=N/C1=C\c1ccco1 (centres undefined)
Result: > 100 µM

Request: Query CCN1C(=O)C(=C/C=C/c2ccc([N+](=O)[O-])cc2)C(=O)N(CC)C1=S next
Result: 47.7 µM

Request: One more compound: C=C1C(=O)CC2C(=O)C(C)(O)CC/C=C(\C)C(=O)CC12 (centres undefined)
Result: > 55.7 µM

Request: Subsequent entry: O=C(O)CC[N+]1=CCC(c2ccccc2)(c2ccccc2)O1
Result: > 100 µM

Request: Follow-up entry: COc1ccc(-c2c[nH]c(=S)n2-c2ccc(OC)cc2)cc1
Result: > 50 µM

Request: N=C(N)c1ccc(N=Nc2c(O)ccc3c2[nH]c2ccccc23)cc1 ?
Result: > 39.6 µM

Request: Another: Cc1cn(C(Cc2ccccc2)OCCO)c(=O)[nH]c1=O (centres undefined)
Result: > 100 µM

Request: What about CCOP(=O)(OCC)c1c(C(=O)OC)cc(=O)[nH]c1-c1ccc(C)cc1 ?
Result: 37.4 µM

Request: Here is the next compound: O=C(OCC1OC2OC(c3ccccc3)(n3ccc4c([N+](=O)[O-])ccnc43)OC2C1OC(=O)c1ccccc1)c1ccccc1 (centres undefined)
Result: > 100 µM

Request: Here is the next compound: CCCSc1ccc2[nH]c(/N=C/c3ccco3)cc2c1
Result: > 100 µM

Request: Note, next up: CCC1(C(=O)OC(C)(C)C)OC12C(C)CCCC2C (centres undefined)
Result: > 100 µM
